- System: WNK4
- measurement context: concentration: 1 μM, replicates: in singlicate; n = 1;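 further: KINOMEscan kinase panel screen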
endpoint label: %Inh (%)

[[record]]
compound = "NCCCC(NC(=O)c1cc(Br)c(-c2ccnc3[nH]ccc23)s1)c1ccccc1.O=C(O)C(F)(F)F.O=C(O)C(F)(F)F (centres unmarked) [GSK1287544]"
target_or_test_system = "WNK4"
val = 8

[[record]]
compound = "COc1ccc(Nc2nccc(N3CCC(NC(=O)Nc4cccc(OC)c4)C3)n2)cc1 (centres unmarked) [GSK1379742]"
target_or_test_system = "WNK4"
val = 0

[[record]]
compound = "COc1cc(Nc2ncc3c(C)nc(-c4cc5ccccc5[nH]4)n3n2)cc(OC)c1OC [GW869516]"
target_or_test_system = "WNK4"
val = 0

[[record]]
compound = "Cl.c1ccc(-c2ccc3c(Nc4ccc5[nH]ncc5c4)ccnc3c2)nc1 [GW440137]"
target_or_test_system = "WNK4"
val = 28

[[record]]
compound = "Clc1ccc(-c2nn3ncccc3c2-c2ccnc(Nc3ccc4c(c3)OCCO4)n2)cc1 [GW829116]"
target_or_test_system = "WNK4"
val = 0


* * *

- Tested on: ROCK1
- measurement context: concentration: 1 μM, replicates: in singlicate; n = 1
Some molecules, each annotated with its measured %Inh.
endpoint label: %Inh (%)

[[record]]
molecule = "Cc1ccc(S(=O)(=O)Nc2ccc(Nc3nccc(Nc4cccc5[nH]ncc45)n3)cc2)cc1"
measurement_units = "%"
val = 0

[[record]]
molecule = "CC(=O)Nc1nc2cnc(Nc3cc(NC(=O)c4cccc(C5(C#N)CC5)c4Cl)ccc3C)nc2s1"
measurement_units = "%"
val = 5

[[record]]
molecule = "c1ccc(-c2cnc3nccnn23)cc1"
measurement_units = "%"
val = 0

[[record]]
molecule = "Nc1n[nH]c2cnc(-c3ccccc3)cc12"
measurement_units = "%"
val = 40

[[record]]
molecule = "O=C(Nc1n[nH]c2cc(-c3ccoc3)ccc12)C1CC1"
measurement_units = "%"
val = 0

[[record]]
molecule = "Nc1ncc(-c2cccnc2)c2scc(-c3ccc4c(c3)CCN4C(=O)Cc3ccccc3)c12"
measurement_units = "%"
val = 0

[[record]]
molecule = "C[C@@H](Oc1cc(-n2cnc3cc(-c4ccnc(NCCS(C)(=O)=O)c4)ccc32)sc1C(N)=O)c1ccccc1Cl"
measurement_units = "%"
val = 0

[[record]]
molecule = "CC(C)c1nc(-c2cccc(NS(=O)(=O)c3c(F)cccc3F)c2F)c(-c2ccnc(Nc3ccc(N4CCOCC4)nc3)n2)s1"
measurement_units = "%"
val = 0

[[record]]
molecule = "O=C(Nc1cccc(-c2nn3ncccc3c2-c2ccnc(Nc3ccccc3)n2)c1)c1c(F)cccc1F"
measurement_units = "%"
val = 34

[[record]]
molecule = "COc1ccc(-c2coc3ccc(-c4nnc(SCc5ccc(OC)c(C(F)(F)F)c5)o4)cc23)cc1"
measurement_units = "%"
val = 0

[[record]]
molecule = "CN(C)S(=O)(=O)c1cc(-c2ccc3nccc(-c4cccc(S(N)(=O)=O)c4)c3c2)cnc1N"
measurement_units = "%"
val = 0

[[record]]
molecule = "NCCCC(NC(=O)c1cc(Br)c(-c2ccnc3[nH]ccc23)s1)c1ccccc1.O=C(O)C(F)(F)F.O=C(O)C(F)(F)F (centres unmarked)"
measurement_units = "%"
val = 99.4

[[record]]
molecule = "O=C(O)C(F)(F)F.O=C(O)C(F)(F)F.O=c1[nH]ccc2nc(N[C@@H]3CCCNC3)nc(Nc3ccc(S(=O)(=O)N4CCOCC4)cc3)c12"
measurement_units = "%"
val = 99.6

[[record]]
molecule = "Cn1cc(-c2[nH]c3cc(NC(=O)[C@H](N)C4CCCCC4)cc4c3c2C=NNC4=O)cn1"
measurement_units = "%"
val = 85

[[record]]
molecule = "Cc1ccc(F)c(C(=O)Nc2cccc(-c3nn4ccccc4c3-c3ccnc(Nc4cccc(F)c4)n3)c2)c1F"
measurement_units = "%"
val = 0

[[record]]
molecule = "COc1cc(Nc2nccc(N3CCC(NC(=O)Nc4cccc(C(C)=O)c4)C3)n2)cc(OC)c1OC (centres unmarked)"
measurement_units = "%"
val = 25

[[record]]
molecule = "O=C(NC1CCN(c2ccnc(Nc3ccc(F)cc3)n2)C1)c1cc2ccccc2s1 (centres unmarked)"
measurement_units = "%"
val = 39

[[record]]
molecule = "FC(F)(F)c1ccc(/C=C/c2cncnc2Nc2ccc3[nH]c(Cc4ccccc4)nc3c2)cc1"
measurement_units = "%"
val = 0

[[record]]
molecule = "CC(C)(C)c1ccc2nccc(Nc3cccc(O)c3)c2c1"
measurement_units = "%"
val = 55

[[record]]
molecule = "O=C(Nc1cccc(Oc2ccc3nc(NC(=O)C4CC4)cn3n2)c1)c1ccccc1C(F)(F)F"
measurement_units = "%"
val = 0

[[record]]
molecule = "COC(=O)Nc1nc2ccc(Oc3ccc(NC(=O)Nc4cc(C(F)(F)F)ccc4F)cc3)cc2n1C.Cl"
measurement_units = "%"
val = 34

[[record]]
molecule = "Nc1ncc(-c2ccc3nccc(-c4ccncc4)c3c2)cc1S(=O)(=O)N1CCOCC1"
measurement_units = "%"
val = 0

[[record]]
molecule = "Cl.NC(=O)c1cccc(Nc2nccc(Nc3ccc(Oc4c(Cl)cccc4Cl)c(Cl)c3)n2)c1"
measurement_units = "%"
val = 0

[[record]]
molecule = "O=C(Nc1cccc(-c2nn3ccccc3c2-c2ccnc(Nc3cccc(C(F)(F)F)c3)n2)c1)c1c(F)cccc1F"
measurement_units = "%"
val = 0

[[record]]
molecule = "COc1cc(Nc2ncc3c(C)nc(-c4cc5ccccc5[nH]4)n3n2)cc(OC)c1OC"
measurement_units = "%"
val = 0

[[record]]
molecule = "COc1cccc(NC(=O)NC2CCN(c3ccnc(Nc4cc(OC)c(OC)c(OC)c4)n3)C2)c1 (centres unmarked)"
measurement_units = "%"
val = 4


* * *

- Test system: TSSK3
- measurement context: concentration: 1 μM, replicates: in singlicate; n = 1
The following compounds are shown together with reported %Inh values.
endpoint label: %Inh (%)

[[record]]
compound = "Cc1cccc(Nc2nc(N[C@H]3CCNC3)ncc2C(N)=O)c1.Cl"
target_or_test_system = "TSSK3"
measurement_units = "%"
val = 29

[[record]]
compound = "COc1cc(Nc2nccc(N3CCC(NC(=O)c4cc5ccccc5s4)C3)n2)cc(OC)c1OC (centres unmarked)"
target_or_test_system = "TSSK3"
measurement_units = "%"
val = 26

[[record]]
compound = "Cl.Cl.NCC(NC(=O)c1cc(-c2ccccc2)c(-c2ccnc3[nH]ccc23)s1)c1ccccc1 (centres unmarked)"
target_or_test_system = "TSSK3"
measurement_units = "%"
val = 18

[[record]]
compound = "Oc1cc(Nc2ccnc3cc(I)ccc23)ccc1F"
target_or_test_system = "TSSK3"
measurement_units = "%"
val = 13

[[record]]
compound = "O=C(Nc1ccccc1F)NC1CCN(c2ccnc(Nc3ccc(F)cc3)n2)CC1"
target_or_test_system = "TSSK3"
measurement_units = "%"
val = 22

[[record]]
compound = "C[C@@H]1CC[C@@H](C(=O)Nc2ccccc2)CN1c1cc(-c2ccc3c(N)n[nH]c3c2)nc(N)n1"
target_or_test_system = "TSSK3"
measurement_units = "%"
val = 0

[[record]]
compound = "CCn1c(-c2nonc2N)nc2c(C#CC(C)(C)O)nc(OC[C@H](N)c3ccccc3)cc21"
target_or_test_system = "TSSK3"
measurement_units = "%"
val = 82

[[record]]
compound = "CN(C)Cc1ccc(-c2ccc3c(Nc4ccc(Oc5ccccn5)cc4)ccnc3c2)o1"
target_or_test_system = "TSSK3"
measurement_units = "%"
val = 6

[[record]]
compound = "COc1cc(Nc2nccc(N3CCC(NC(=O)Nc4cccc(C(C)=O)c4)C3)n2)cc(OC)c1OC (centres unmarked)"
target_or_test_system = "TSSK3"
measurement_units = "%"
val = 9

[[record]]
compound = "NCCCC(NC(=O)c1cc(Br)c(-c2ccnc3[nH]ccc23)s1)c1ccccc1.O=C(O)C(F)(F)F.O=C(O)C(F)(F)F (centres unmarked)"
target_or_test_system = "TSSK3"
measurement_units = "%"
val = 1

[[record]]
compound = "CCc1ccc(-c2ccc3c(c2)-c2c(cnn2C)S(=O)(=O)N3C)cc1"
target_or_test_system = "TSSK3"
measurement_units = "%"
val = 0


* * *

- Tested on: AKT1
- measurement context: concentration: 1 μM, replicates: in singlicate; n = 1
# Lookup of reported %Inh keyed by entry
endpoint label: %Inh (%)

[[record]]
compound = "Cc1ccc(C)c(NC(=O)NC2CCN(c3ccnc(Nc4ccc(F)cc4)n3)C2)c1 (stereo not shown)"
endpoint_label = "%Inh"
val = 0

[[record]]
compound = "Nc1ncnc2c1nc(-c1ccccc1)n2-c1ccccc1"
endpoint_label = "%Inh"
val = 2

[[record]]
compound = "COC(=O)Nc1nc2cc(Oc3ccc(NC(=O)Nc4cc(C(F)(F)F)ccc4F)cn3)ccc2[nH]1.Cl.Cl"
endpoint_label = "%Inh"
val = 0

[[record]]
compound = "Clc1ccc(-c2nn3ncccc3c2-c2ccnc(Nc3ccc4c(c3)OCCO4)n2)cc1"
endpoint_label = "%Inh"
val = 13

[[record]]
compound = "C[C@@H]1CC[C@@H](C(=O)Nc2ccccc2)CN1c1cc(-c2ccc3c(N)n[nH]c3c2)nc(N)n1"
endpoint_label = "%Inh"
val = 0

[[record]]
compound = "Cc1occc1-c1ncc(OC[C@@H](N)Cc2c[nH]c3ccccc23)cc1-c1ccc2[nH]nc(C)c2c1.O=C(O)C(F)(F)F"
endpoint_label = "%Inh"
val = 97

[[record]]
compound = "CCn1c(-c2nonc2N)nc2c(C#CC(C)(C)O)nc(OC[C@H](N)c3ccccc3)cc21"
endpoint_label = "%Inh"
val = 95.8

